Biological target: HLA-A*02:11
Assay: IEDB peptide-MHC binding, purified MHC/competitive/fluorescence; filed as Kd, often an IC50 or EC50 that approximates it; bounds were set here for any values at or beyond the usual limits of such assays
Conditions: source organism: Giardia lamblia ATCC 50803
pKd: −log10 of the molar value.
test readout: pKd

Provide the reported pKd (system: HLA-A*02:11) for ELLDHLLLF
≤ 4.70

----------
Target: HLA-B*08:02
Experiment: IEDB peptide-MHC binding, purified MHC/direct/fluorescence; filed as Kd, often an IC50 or EC50 that approximates it; bounds were set here for any values at or beyond the usual limits of such assays
Conditions: source organism: Variola virus
test readout: Kd

Tell me Kd reported for LLLLISLVY
≥ 20 µM

----------
Biological target: HLA-A*26:01
Test: IEDB peptide-MHC binding, purified MHC/direct/fluorescence; filed as Kd, often an IC50 or EC50 that approximates it; bounds were set here for any values at or beyond the usual limits of such assays
Details: source organism: Influenza A virus(A/swine/Shandong/fNY/2003(H9N2))
pKd: −log10 of the molar value.
test readout: pKd

State, in one line, measured pKd of KTTYWWDGL
≤ 4.70

----------
Target: HLA-A*29:02
Test: IEDB peptide-MHC binding, purified MHC/direct/fluorescence; filed as Kd, often an IC50 or EC50 that approximates it; bounds were set here for any values at or beyond the usual limits of such assays
Settings: source organism: Zaire ebolavirus
pKd: −log10 of the molar value.
test readout: pKd

Annotate the sequence ATEDPSSGY with its measured pKd.
≤ 4.70

----------
Target: HLA-B*18:01
Assay: IEDB peptide-MHC binding, purified MHC/competitive/fluorescence; filed as Kd, often an IC50 or EC50 that approximates it; bounds were set here for any values at or beyond the usual limits of such assays
Settings: source organism: Tai Forest ebolavirus
test readout: Kd

Please list Kd recorded for the sequence FAEGVIAFL
≥ 20 µM

----------
Target: HLA-A*30:01
Experiment: IEDB peptide-MHC binding, purified MHC/competitive/fluorescence; filed as Kd, often an IC50 or EC50 that approximates it; bounds were set here for any values at or beyond the usual limits of such assays
Conditions: source organism: Homo sapiens
test readout: pKd
Remember the convention: pKd equals -log10 of concentration in molar.

Note down pKd recorded for VRVCACPGR
5.63

----------
Target: HLA-B*08:01
Assay: IEDB peptide-MHC binding, purified MHC/competitive/fluorescence; filed as Kd, often an IC50 or EC50 that approximates it; bounds were set here for any values at or beyond the usual limits of such assays
Conditions: source organism: Homo sapiens
pKd: −log10 of the molar value.
test readout: pKd

Given VRVCACPGR , respond with its pKd.
≤ 4.70

----------
Kd overview
Molecular target: HLA-A*32:01
Assay: IEDB peptide-MHC binding, purified MHC/competitive/radioactivity; filed as Kd, often an IC50 or EC50 that approximates it; bounds were set here for any values at or beyond the usual limits of such assays
Details: source organism: Vaccinia virus WR
Report the figure in nM without appending any unit label.

Recorded Kd, per entry:
# seq text, test readout, data value
data = [
    ("KAFNHASVK", "Kd", 3640),
    ("LSNGASLTI", "Kd", 73.5),
    ("FSNFSTSHI", "Kd", 18400),
    ("LSTTRFQSM", "Kd", 9770),
    ("IIWKGIYTY", "Kd", 3.28),
    ("IVYGRSNAI", "Kd", 3.15),
]

Item RLNQPVNNI : provide Kd
25

Give recorded Kd. ISWMMKLGI
42.1

----------
Measured pKd of individual entries
Target: HLA-A*31:01
Experiment: IEDB peptide-MHC binding, purified MHC/competitive/radioactivity; filed as Kd, often an IC50 or EC50 that approximates it; bounds were set here for any values at or beyond the usual limits of such assays
Settings: source organism: Dengue virus 4 Philippines/H241/1956
Hey, just a heads up that pKd is the negative log base 10 of the concentration in molar.

Past entries and their recorded results:
# seq text, assay target, pKd
measured = [
    ("MLLNRFTTR", "HLA-A*31:01", 8.82),
    ("KLRPKWLDAR", "HLA-A*31:01", 8.68),
    ("RAGRVIDPR", "HLA-A*31:01", 7.54),
]

Find the measured pKd of KWLKECGVDR with HLA-A*31:01 as test system.
6.44

Report the value of pKd obtained on HLA-A*31:01 for YMWQVKTQR .
8.85

----------
Target: HLA-A*33:01
Experiment: IEDB peptide-MHC binding, purified MHC/competitive/radioactivity; filed as Kd, often an IC50 or EC50 that approximates it; bounds were set here for any values at or beyond the usual limits of such assays
Conditions: source organism: Lymphocytic choriomeningitis virus (strain Armstrong)
test readout: Kd (µM)
The figure you give is taken to be in µM; do not add the unit.

For the sequence TFTNDSIISH , report Kd.
8.72

----------
Target: HLA-B*48:01
Experiment: IEDB peptide-MHC binding, purified MHC/competitive/fluorescence; filed as Kd, often an IC50 or EC50 that approximates it; bounds were set here for any values at or beyond the usual limits of such assays
Conditions: source organism: Vibrio vulnificus CMCP6
test readout: Kd (nM)
The figure you give is taken to be in nM; do not add the unit.

Please give measured Kd of the following entry: RIHDIAVQL
111

----------
Target: HLA-A*31:01
Assay: IEDB peptide-MHC binding, purified MHC/competitive/fluorescence; filed as Kd, often an IC50 or EC50 that approximates it; bounds were set here for any values at or beyond the usual limits of such assays
Settings: source organism: Influenza A virus (A/swine/Italy/1513-1/1998(H1N1))
test readout: pKd
Here pKd is given on a logarithmic scale as minus log10 of the concentration in mol/L.

Give the measured pKd for MMWEINGPK
7.12

----------
Molecular target: HLA-B*48:01
Assay: IEDB peptide-MHC binding, purified MHC/direct/fluorescence; filed as Kd, often an IC50 or EC50 that approximates it; bounds were set here for any values at or beyond the usual limits of such assays
Conditions: source organism: Mammarenavirus lassaense
test readout: Kd

Identify Kd associated with the sequence ILNHKFCNL
≥ 20 µM

----------
Target: HLA-A*03:01
Assay: IEDB peptide-MHC binding, purified MHC/competitive/radioactivity; filed as Kd, often an IC50 or EC50 that approximates it; bounds were set here for any values at or beyond the usual limits of such assays
Conditions: source organism: Vaccinia virus WR
Kd for assorted sequences
I only need the number, in nM, no unit after it.

# seq text, unit of measurement, data value
measured = [
    ("SSVQLSNNKY", "nM", 4650),
]

Supply recorded Kd for LTILDDNLY here.
11200

Please supply the value of reported Kd for the item FSLESDSIK
1570

Please give measured Kd of the following entry: TILDDNLYK
390

Please indicate Kd recorded for SIKDVIHDY
2830

Consider the sequence TLDTMDDMKK and give its recorded Kd.
762

Give the value of Kd reported for the following: IILSKIPYLR
40.9

----------
Molecular target: HLA-A*02:50
Experiment: IEDB peptide-MHC binding, purified MHC/competitive/fluorescence; filed as Kd, often an IC50 or EC50 that approximates it; bounds were set here for any values at or beyond the usual limits of such assays
Details: source organism: Vibrio cholerae 2740-80
pKd: −log10 of the molar value.
test readout: pKd

Dear colleague, please send me the reported pKd for FLHPKHWGT when you can.
≥ 10.00

----------
Biological target: HLA-B*58:01
Experiment: IEDB peptide-MHC binding, purified MHC/direct/fluorescence; filed as Kd, often an IC50 or EC50 that approximates it; bounds were set here for any values at or beyond the usual limits of such assays
Conditions: source organism: Giardia intestinalis
pKd: −log10 of the molar value.
test readout: pKd

Return reported pKd. Input sequence: GPRRAAWRI
≤ 4.70

----------
Target: HLA-A*02:01
Assay: IEDB peptide-MHC binding, purified MHC/competitive/fluorescence; filed as Kd, often an IC50 or EC50 that approximates it; bounds were set here for any values at or beyond the usual limits of such assays
Conditions: source organism: Araucaria virus
test readout: Kd

Annotate the sequence AFMATNKAY with its measured Kd.
≥ 20 µM

----------
Molecular target: HLA-A*01:01
Test: IEDB peptide-MHC binding, purified MHC/direct/fluorescence; filed as Kd, often an IC50 or EC50 that approximates it; bounds were set here for any values at or beyond the usual limits of such assays
Conditions: source organism: Marburg virus - Musoke, Kenya, 1980
pKd: −log10 of the molar value.
test readout: pKd

# seq text, assay target, pKd
measured = [
    ("AEILSGRVI", "HLA-A*01:01", "≤ 4.70"),
]

Now turn to the next sequence.
Write pKd of QVGIFLICK ; system used: HLA-A*01:01
≤ 4.70
